Origin of measurements: the supplement of paper PMC9112550

System: Escherichia coli TOP10;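 also: peptides expressed intracellularly from a pBAD plasmid library in pooled LB shake-flask culture, induced with 0.3% L-arabinose, DNA abundance read by NGS, three biological replicates, DESeq2 with apeglm shrinkage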
Experiment: shrunken log2 fold change of peptide-encoding DNA abundance (4.5 h post-induction vs induction); higher = less antimicrobial activity (less host growth inhibition)
Conditions: time post-induction: 4.5 h; library: site-saturation at positions 5, 18, 19, 20
MEASUREMENT TYPE: shrunken log2 fold change
Output spec: single numeric token, no unit.

Worked examples, 6 sequences total:
RRIRERPPRLPRPRPRPCFFPRP -0.331
RRIRKRPPRLPRPRPRPRSDPRP 0.197
RRIRTRPPRLPRPRPRPGLPPRP 0.189
RRIRSRPPRLPRPRPRPRRNPRP 0.128
RRIRWRPPRLPRPRPRPVFAPRP 0.394
RRIRFRPPRLPRPRPRPDPCPRP -0.191

IN: Tell me the measured shrunken log2 fold change of `RRIRERPPRLPRPRPRPEYLPRP` , please.
OUT: -1.13

IN: Tell me the measured shrunken log2 fold change of `RRIRERPPRLPRPRPRPRLDPRP` , please.
OUT: 0.0479

IN: Tell me the measured shrunken log2 fold change of `RRIRHRPPRLPRPRPRPECAPRP` , please.
OUT: 0.249
